Below, each of the compounds is paired with its reported viability at 48 h, 25 µM value.
- Assay summary: in vitro
- Test context: human, hek293t cells

{"Compound": "CC(Cl)C(=O)N1CCn2c(nn(CC(=O)N(C)C)c2=O)C1 (stereo not drawn) [7-K17]", "viability at 48 h, 25 µM (%)": 83.1}
{"Compound": "Cc1ccc(C)c(Sc2ccc(NC(=O)CCl)cc2)c1 [4-H09]", "viability at 48 h, 25 µM (%)": -0.157}
{"Compound": "CC(c1cccc([N+](=O)[O-])c1)N(C)C(=O)CCl (stereo not drawn) [6-G06]", "viability at 48 h, 25 µM (%)": 1.19}
{"Compound": "C=CC(=O)Nc1ccc(N2CCCCC2)c(F)c1 [2-I22]", "viability at 48 h, 25 µM (%)": 92.5}
{"Compound": "CC(Cl)C(=O)N1CCCc2ccc(N(C)C)cc2C1 (stereo not drawn) [7-C15]", "viability at 48 h, 25 µM (%)": 82.1}
{"Compound": "CC(NC(=O)CCl)c1nnc(-c2ccccc2F)s1 (stereo not drawn) [7-L21]", "viability at 48 h, 25 µM (%)": 0.564}
{"Compound": "COc1ccc2ccccc2c1C=C(C#N)C(=O)NC1CCCCC1 [8-P18]", "viability at 48 h, 25 µM (%)": 66.4}
{"Compound": "Cc1ccc(C=C(C#N)C(=O)NC(C)C)o1 [8-I21]", "viability at 48 h, 25 µM (%)": 95.7}
{"Compound": "N#CC(=Cc1cnn(Cc2ccccc2)c1)C(=O)Nc1nccs1 [9-M03]", "viability at 48 h, 25 µM (%)": 111}
{"Compound": "C=CC(=O)NC1(c2nccc(C(F)(F)F)n2)CC1 [2-D07]", "viability at 48 h, 25 µM (%)": 74.9}
{"Compound": "C=CC(=O)N1CCC(O)(c2ccccc2)CC1 [1-E15]", "viability at 48 h, 25 µM (%)": 79.8}
{"Compound": "C=CC(=O)N1CCN(S(C)(=O)=O)[C@H](C)C1 [1-G15]", "viability at 48 h, 25 µM (%)": 101}
{"Compound": "Cc1cc(CNC(=O)CCl)[nH]n1 [7-L22]", "viability at 48 h, 25 µM (%)": 90.6}
{"Compound": "CCn1c(-c2ccccc2)c(C(=O)CCl)c2ccccc21 [10-E12]", "viability at 48 h, 25 µM (%)": 0.509}
{"Compound": "Cc1ccccc1NC(=O)C(C#N)=Cc1cccnc1 [8-D10]", "viability at 48 h, 25 µM (%)": 95.5}
